The molecules listed here are annotated with their Potency.
Experiment: BET inhibitor-based combinations targeting novel dependencies in MECOM-rearranged (r) AML: MV-4-11 cell line (AID 2202233); also: potency is read from the fitted curve at half-maximal effect; nearly all actives have a fitted effect of over 45% in size
Conditions: MV-4-11 AML viability, CellTiter-Glo luminescence, 48 h; series mostly up to 46 µM
Inconclusive results are not listed. The source made the active and inactive calls. Calls follow the shape of the dose curve; as a rule, active = well fitted inhibition curve with a large enough effect; inconclusive = small, poorly fitted or top-dose-only effect; inactive = no such curve, though single readings can be large or run the other way.
ENDPOINT_LABEL: Potency

{"ENTRY_SMILES": "COc1cc2ncnc(Nc3cccc(Br)c3)c2cc1OC", "RECORDED_RESULT": "9.34 µM (active)"}
{"ENTRY_SMILES": "Nc1nc2ccc(OC(F)(F)F)cc2s1", "RECORDED_RESULT": "23.5 µM (active)"}
{"ENTRY_SMILES": "COc1cccc(Nc2c(C(N)=O)cnc3c(C)cc(S(=O)(=O)c4cccc(C(=O)N(C)C)c4)cc23)c1", "RECORDED_RESULT": "3.32 µM (active)"}

###

Biological target: Cellular tumor antigen p53 (Homo sapiens) (UniProt P04637)
Sequence (P04637 whole entry, looked up): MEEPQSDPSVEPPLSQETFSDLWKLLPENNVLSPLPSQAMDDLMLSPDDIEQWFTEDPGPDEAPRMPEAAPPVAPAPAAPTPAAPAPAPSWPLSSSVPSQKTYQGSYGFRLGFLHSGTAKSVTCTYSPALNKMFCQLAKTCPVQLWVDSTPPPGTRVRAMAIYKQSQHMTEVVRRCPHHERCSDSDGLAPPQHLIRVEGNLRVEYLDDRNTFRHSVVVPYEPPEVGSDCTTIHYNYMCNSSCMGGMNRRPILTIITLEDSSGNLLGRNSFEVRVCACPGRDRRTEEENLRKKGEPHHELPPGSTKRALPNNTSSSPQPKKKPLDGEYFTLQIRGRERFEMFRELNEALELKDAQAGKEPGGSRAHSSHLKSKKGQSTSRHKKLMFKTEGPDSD
Test: Primary qHTS for small molecule compounds that upregulate eGFP-tagged delta133p53alpha (in N-terminal) cells. (AID 2060322);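 also: cells pre-induced with doxycycline then dosed without doxycycline; 0% = DMSO vehicle and 100% = reference activator; nearly all actives have a fitted effect of over 75% in size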
Details: NCI-H358 eGFP-delta133p53alpha fluorescence, 24 h; active compounds read high
From the text: Assay Development and Screening Technology National Center for Advancing Translational Sciences (NCATS), National Institute of Health (NIH), Rockville, Maryland Cellular senescence (CS) is one of the hallmarks of aging and age-related diseases. […] Here we report the development and validation of a cell-based quantitative high throughput screening (qHTS) assay in 1,536-well format. […]
Inconclusive results are not listed.

{"COMPOUND": "CC(=O)O[C@H]1CC[C@@]2(C)C(CC[C@@H](C)[C@]23Cc2c(O)cc4c(c2O3)CN([C@@H](CCC(=O)O)C(=O)O)C4=O)C1(C)C (stereo partly specified)", "TARGET_DESC": "Cellular tumor antigen p53 (Homo sapiens) (UniProt P04637)", "activation, %": 0.763}
{"COMPOUND": "COC1CC/C=C(\\C)C(=O)Nc2cc(O)cc(c2)CC(C)CC(OC)C(O)C(C)/C=C(\\C)C1OC(N)=O (stereo unspecified)", "TARGET_DESC": "Cellular tumor antigen p53 (Homo sapiens) (UniProt P04637)", "activation, %": 6.87}
{"COMPOUND": "CC(C)C[C@@H](C(=O)N[C@@H](Cc1ccc(OCc2ccccc2)cc1)C(=O)NC(C)(C)C)N(C)Cc1ccc(C(C)(C)C)cc1", "TARGET_DESC": "Cellular tumor antigen p53 (Homo sapiens) (UniProt P04637)", "activation, %": -1.91}
{"COMPOUND": "COC(=O)C1=COC(OC2OC(CO)C(O)C(O)C2O)C2C1CC(OC(=O)C(O)CC(=O)O)C2C (stereo unspecified)", "TARGET_DESC": "Cellular tumor antigen p53 (Homo sapiens) (UniProt P04637)", "activation, %": 10.7}
{"COMPOUND": "COC(=O)C[C@@H]1C(C(=O)O)=CO[C@@H](O[C@@H]2O[C@H](CO)[C@@H](O)[C@H](O)[C@H]2O)/C1=C\\COC(=O)/C=C\\c1ccccc1", "TARGET_DESC": "Cellular tumor antigen p53 (Homo sapiens) (UniProt P04637)", "activation, %": 26}
{"COMPOUND": "Oc1cccc(-c2c3nc(c(-c4cccc(O)c4)c4ccc([nH]4)c(-c4cccc(O)c4)c4nc(c(-c5cccc(O)c5)c5ccc2[nH]5)CC4)C=C3)c1", "TARGET_DESC": "Cellular tumor antigen p53 (Homo sapiens) (UniProt P04637)", "activation, %": 25.9}
{"COMPOUND": "C[C@@H]1CC[C@]2(C(=O)O[C@@H]3O[C@H](CO)[C@@H](O)[C@H](O)[C@H]3O)CC[C@]3(C)C(=CCC4[C@@]5(C)C[C@@H](O)[C@H](O)C(C)(C)C5CC[C@]43C)C2[C@]1(C)O (stereo partly specified)", "TARGET_DESC": "Cellular tumor antigen p53 (Homo sapiens) (UniProt P04637)", "activation, %": -17.6}
{"COMPOUND": "CCCNC(C)C(=O)Nc1c(C)csc1C(=O)OC (stereo unspecified)", "TARGET_DESC": "Cellular tumor antigen p53 (Homo sapiens) (UniProt P04637)", "activation, %": -37.9}
{"COMPOUND": "C[C@H](N)[C@H](O)c1cccc(O)c1", "TARGET_DESC": "Cellular tumor antigen p53 (Homo sapiens) (UniProt P04637)", "activation, %": -7.53}
{"COMPOUND": "C/C=C1/C[N+](C)([O-])C2Cc3c([nH]c4ccccc34)C(=O)CC1C2C(=O)OC (stereo unspecified)", "TARGET_DESC": "Cellular tumor antigen p53 (Homo sapiens) (UniProt P04637)", "activation, %": -9.82}
{"COMPOUND": "Clc1ccc2c(N3CCN(CCCN4CCN(c5ccnc6cc(Cl)ccc56)CC4)CC3)ccnc2c1", "TARGET_DESC": "Cellular tumor antigen p53 (Homo sapiens) (UniProt P04637)", "activation, %": 26.5}
{"COMPOUND": "C(#Cc1cccc(CN2CCOCC2)c1)CCN1CCCCC1", "TARGET_DESC": "Cellular tumor antigen p53 (Homo sapiens) (UniProt P04637)", "activation, %": -4.3}
{"COMPOUND": "NC(=O)c1ccc(I)c([N+](=O)[O-])c1", "TARGET_DESC": "Cellular tumor antigen p53 (Homo sapiens) (UniProt P04637)", "activation, %": 13.8}
{"COMPOUND": "COC(=O)C1=CO[C@@H](O[C@@H]2O[C@H](CO[C@@H]3O[C@H](CO)[C@@H](O)[C@H](O)[C@H]3O)[C@@H](O)[C@H](O)[C@H]2O)[C@@H]2C(CO)=CC[C@H]12", "TARGET_DESC": "Cellular tumor antigen p53 (Homo sapiens) (UniProt P04637)", "activation, %": 8.4}
{"COMPOUND": "S=c1[nH]c(-c2ccccc2)cn1-c1ccccc1", "TARGET_DESC": "Cellular tumor antigen p53 (Homo sapiens) (UniProt P04637)", "activation, %": -21.8}
{"COMPOUND": "CN1C(=O)C(Cc2c[nH]c3ccccc23)NC1=S (stereo unspecified)", "TARGET_DESC": "Cellular tumor antigen p53 (Homo sapiens) (UniProt P04637)", "activation, %": 23.7}

###

Test: BET inhibitor-based combinations targeting novel dependencies in MECOM-rearranged (r) AML: UCSD-AML1 cell line (AID 2202235); also: nearly all actives have a fitted effect of over 40% in size
Conditions: UCSD-AML1 AML cells viability, CellTiter-Glo, 48 h; series mostly up to 46 µM
Records with an inconclusive call do not appear. Active and inactive are the calls of the source. Calls come from the whole dose curve; as a rule, active = well fitted inhibition curve with a large enough effect; inconclusive = small, poorly fitted or top-dose-only effect; inactive = no such curve, though single readings can be large or run the other way.
Possible outcomes: active, inactive

{"ENTRY_SMILES": "N#Cc1c(C2CCNCC2)cc(-c2c(O)cccc2OCC2CC2)nc1N", "CLASS_NAME": "active"}
{"ENTRY_SMILES": "COc1cc(S(C)(=O)=O)ccc1Nc1nc2ccc(-c3ccc(NC(=O)[C@H](C)c4ccc(F)cc4)cc3)cn2n1", "CLASS_NAME": "active"}
{"ENTRY_SMILES": "OC[C@H]1O[C@@H](n2cnc3c2NC=NC[C@H]3O)C[C@@H]1O", "CLASS_NAME": "inactive"}

###

Experiment: BET inhibitor-based combinations targeting novel dependencies in MECOM-rearranged (r) AML: UCSD-AML1 cell line (AID 2202235); also: nearly all actives have a fitted effect of over 40% in size; also: potency is read from the fitted curve at half-maximal effect
Conditions: UCSD-AML1 AML cells viability, CellTiter-Glo, 48 h; series mostly up to 46 µM
Results filed as inconclusive are left out. Activity calls are given as the source filed them. Calls come from the whole dose curve; as a rule, active = well fitted inhibition curve with a large enough effect; inconclusive = small, poorly fitted or top-dose-only effect; inactive = no such curve, though single readings can be large or run the other way.

{"COMPOUND": "C=CC(=O)Nc1cccc(Sc2nc(Nc3ccc(N4CCN(C)CC4)cc3)ncc2Cl)c1", "Potency": "9.34 µM (active)"}
{"COMPOUND": "Cc1cn[nH]c1", "Potency": "inactive"}
{"COMPOUND": "CC(C)(F)C[C@H](N[C@@H](c1ccc(-c2ccc(S(C)(=O)=O)cc2)cc1)C(F)(F)F)C(=O)NC1(C#N)CC1", "Potency": "inactive"}
{"COMPOUND": "C[C@@H]1O[C@@H](O[C@@H]2\\C=C/C=C\\C=C/C=C\\C[C@H](C)OC(=O)/C=C\\[C@H]3O[C@@H]3C[C@H](O)C[C@]3(O)C[C@@H](O)[C@@H](C(=O)O)[C@H](C2)O3)[C@H](O)[C@H](N)[C@@H]1O", "Potency": "inactive"}
{"COMPOUND": "COc1ccc(CCN2CCN(CCCc3ccccc3)CC2)cc1OC", "Potency": "inactive"}
{"COMPOUND": "Cc1ccc(C(=O)Nc2ccc(Oc3cc4cnn(C)c4cc3-c3cn[nH]c3)c(F)c2)c(=O)n1-c1ccc(F)cc1", "Potency": "5.25 µM (active)"}
{"COMPOUND": "CCNC(=O)CCC/C=C\\C[C@@H]1[C@@H](/C=C/C(O)CCc2ccccc2)[C@@H](O)C[C@@H]1O (some centres not stated)", "Potency": "inactive"}
{"COMPOUND": "O=c1[nH]nc(Sc2ncc([N+](=O)[O-])s2)n1-c1ccc2c(c1)OCCO2", "Potency": "9.34 µM (active)"}
{"COMPOUND": "Nc1nc(Cl)nc2c1ncn2[C@H]1C[C@H](O)[C@@H](CO)O1", "Potency": "0.0295 µM (active)"}
{"COMPOUND": "CCn1nnc2c(N3CCOCC3)nc(-c3ccc(NC(=O)Nc4ccc(C(=O)N5CCN(C)CC5)cc4)cc3)nc21", "Potency": "0.186 µM (active)"}
{"COMPOUND": "Nc1nccc(-c2ccc3noc(-c4ccc(Cl)cc4)c3c2)n1", "Potency": "20.9 µM (active)"}
{"COMPOUND": "CN(C[C@@H]1COCCO1)S(=O)(=O)Nc1ccc2ccc3ncc(-c4cnn(C)c4)cc3c(=O)c2c1", "Potency": "5.9 µM (active)"}
